These entries and their values trace back to patent US20240409645A1.

# tgt: T1, mouse IL-2Rγ (mouse, UniProt P34902 23-263, limits assumed)
# T1 construct: Recombinant mouse IL-2Rγ protein coated on the ELISA plate or immobilised on the CM5 chip; also called mo IL-2R
# T1 sequence (looked up): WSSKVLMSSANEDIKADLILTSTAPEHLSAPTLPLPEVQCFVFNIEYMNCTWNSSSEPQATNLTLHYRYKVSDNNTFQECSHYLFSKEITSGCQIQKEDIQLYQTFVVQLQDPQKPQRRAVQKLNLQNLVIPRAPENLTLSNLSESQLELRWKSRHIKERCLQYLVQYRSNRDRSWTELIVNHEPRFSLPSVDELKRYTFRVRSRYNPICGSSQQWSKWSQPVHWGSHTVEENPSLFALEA
# procedure-summary: binding ELISA, periplasmic extract on coated mouse IL-2Rγ
Entry class follows P.E. binding ELISA OD450: low end (below 0.05 OD450 nm), middle (0.05 OD450 nm to below 0.3 OD450 nm), high end (0.3 OD450 nm or more)

binder: FJ1427_P035MP07H11 (VHH, Tested as soluble VHH fragment in periplasmic extract (P.E.); also called Clone nr; 664) VHH: QVQLVESGGGLVQPGGSLRLSCAASGRTLSRYAMGWFRQAPGKDREFVAASSWGGDTFYADSVEGRFTFSRDNAENATYLQMNSLQPEDTAVYYCAAAPTSFATTAYSSSNSYGSWGQGTQVTVSS
group-label: middle

binder: FJ1427_P035MP07F11 (VHH, Tested as soluble VHH fragment in periplasmic extract (P.E.); also called Clone nr) VHH: QVQLVESGGGLVQAGGSLRLSCAASGRTLSRLAMGWFRQAPGKEREFVAVNSWGGDTFYADSVEGRFTYSRDNAKSAVYLQMNSLQPEDTAVYYCAAAPTSFATTAYSSSNSYAYWGQGTQVTVSS
group-label: high end

binder: FJ1427_P035MP07C12 (VHH, Tested as soluble VHH fragment in periplasmic extract (P.E.); also called Clone nr) VHH: QVQLVESGGGLVQAGGSLRLSCAASGRSLSRDAMGWFRQAPGKEREFVAVMSWGGDTFYTDSVEGRFTFSRDNAKNAVYLEMNDLQPEDTAVYYCAAAPTSFATTAYSSSNSYSYWGRGTQVTVSS
group-label: middle

binder: FJ1427_P035MP07G11 (VHH, Tested as soluble VHH fragment in periplasmic extract (P.E.); also called Clone nr) VHH: QVQLQESGGGLVQAGGSLRLSCAASGRTLSRYAMGWFRQAPGKEREFVTANSWGGDTYYADSVQGRFTFSRDNAKNTVYLQMNSLQPEDTAVYYCAAAPTSFATTAYSSSNSYAYWGQGTQVTVSS
group-label: low end

binder: FJ1427_P035MP07E11 (VHH, Tested as soluble VHH fragment in periplasmic extract (P.E.); also called Clone nr) VHH: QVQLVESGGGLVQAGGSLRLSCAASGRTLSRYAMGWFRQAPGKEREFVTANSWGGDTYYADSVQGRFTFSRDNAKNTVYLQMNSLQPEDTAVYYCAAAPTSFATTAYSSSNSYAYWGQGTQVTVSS
group-label: low end

binder: FJ1427_P035MP07B12 (VHH, Tested as soluble VHH fragment in periplasmic extract (P.E.); also called Clone nr) VHH: EVQLVESGGGLVQAGGSLRLSCAASGRTLSRYAMGWFRQAPGKEREYVAIDSWGGDTFYADSVEGRFTFSRDNAKNEVYLQMNSLQPEDTAVYYCAGAPTSFATTAYSSSNSYRYWGQGTQVTVSS
group-label: high end

binder: FJ1427_P035MP07F12 (VHH, Tested as soluble VHH fragment in periplasmic extract (P.E.); also called Clone nr; 670) VHH: EVQLVESGGGLVQAGDSLRLSCVASGRTLSRCAMGWFRKAPGKEREYVAISSWGGDTFYEDSVEGRFTFSRDNAKNTVYLQMNSLRPEDTAVYYCAAAPTSFATTAYSSSNSYAYWGQGTQVTVSS
group-label: high end
